Study system: C-X-C chemokine receptor type 6 (Homo sapiens) (UniProt O00574)
Sequence (O00574 whole entry, looked up): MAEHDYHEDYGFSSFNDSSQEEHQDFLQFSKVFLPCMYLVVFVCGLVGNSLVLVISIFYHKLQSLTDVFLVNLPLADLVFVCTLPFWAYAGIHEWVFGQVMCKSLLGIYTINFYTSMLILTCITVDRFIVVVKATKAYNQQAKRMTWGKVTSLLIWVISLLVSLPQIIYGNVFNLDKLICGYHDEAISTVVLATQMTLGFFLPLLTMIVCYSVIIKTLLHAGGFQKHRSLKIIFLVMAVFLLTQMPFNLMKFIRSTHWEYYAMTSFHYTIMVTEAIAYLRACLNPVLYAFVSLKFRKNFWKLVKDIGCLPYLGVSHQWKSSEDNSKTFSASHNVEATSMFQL
Assay text: potency against CXCR6 with APJ panel – cell-based, beta-arrestin, DiscoveRx, uHTS hits, dose response (AID 624129)
Condition label: CXCR6 beta-arrestin (DiscoveRx) antagonist cell assay, CXCR6, run 2, dose range 1, at 79 µM (top of the series)
Cut-off 80% on inhibition, inclusive. At or above means true; below means false.

See these solved cases before continuing.
Mol	Label
O=C(NC(=S)N(CCc1ccccc1)CCc1ccccc1)c1ccco1	false
Cc1ccc(O)c(C(=O)CC(=O)c2ccc(Cl)cc2)c1	true
Cc1cc(O)c(-c2cc(O)c(C)cc2O)cc1O	true

Okay, next one:
Does COc1cc(/C=C/[N+](=O)[O-])ccc1OC(=O)c1cc2ccccc2oc1=O have a reported inhibition of at least 80%? true

---

Study system: C-X-C chemokine receptor type 6 (Homo sapiens)
Assay text: potency against CXCR6 with APJ panel – cell-based, beta-arrestin, DiscoveRx, uHTS hits, dose response (AID 624129)
Condition label: CXCR6 beta-arrestin (DiscoveRx) antagonist cell assay, CXCR6, run 1, dose range 2
// classify: if (IC50 < 10 µM) true else false

See these solved cases before continuing.
Molecule	Label
CC1=C(O)C(=O)C=C2C1=CC=C1C2(C)CCC2(C)C3CC(C)(C(=O)O)CCC3(C)CCC12C (stereo unspecified)	false
CCN(c1ccccc1)S(=O)(=O)c1ccc(NC(=O)c2nc(S(C)(=O)=O)ncc2Cl)cc1	false
CCCCC(=O)NC(=S)Nc1ccccc1C(=O)Nc1ccccc1	false
Cn1c(O)c(C2=NNC(c3ccc(Cl)cc3)C2)c(=O)n(C)c1=O (stereo unspecified)	true
Cc1c(Cl)sn(-c2ccc(Cl)cc2)c1=O	false
CC(=O)Nc1ccc(Sc2ccc([N+](=O)[O-])o2)cc1	true
Cc1cc(O)ccc1NC(=S)NC(=O)c1cncc(Br)c1	false
Cc1nnc(Sc2cc(NCCO)c([N+](=O)[O-])c3nonc23)s1	true

Problem: For the molecule CCc1ccc(NC(=O)c2nc(S(=O)(=O)Cc3ccccc3)ncc2Cl)cc1 , is IC50 under 10 µM? false

Quick one: Cc1ccc(NC(=O)c2nc(S(=O)(=O)Cc3ccccc3C)ncc2Cl)cc1C false

Quick one: Cc1ccc(NC(=O)c2nc(S(=O)(=O)Cc3ccccc3)ncc2Cl)cc1 false

Quick one: O=C(COc1ccc(Br)cc1Cl)NC(=S)N1CCc2ccccc21 false

Quick one: O=[N+]([O-])/C=C/c1ccc2c(ccn2Cc2ccccc2)c1 true

---

Study system: C-C chemokine receptor type 6 (Homo sapiens)
Assay text: potency against CXCR6 with APJ panel – cell-based, beta-arrestin, DiscoveRx, uHTS hits, dose response (AID 624129)
Condition label: CXCR6 beta-arrestin (DiscoveRx) antagonist cell assay, CCR6, dose range 1
Active and inactive are the calls of the source. No rule for the calls is given here.
Hi! Could you answer with just one of these? yes (1) (active), no (0) (inactive)

Look up the recorded call for COC(=O)C1=C(c2ccc(-c3ccccc3)c(F)c2)C[C@@H]2CC[C@H]1N2C(=O)N1CCC(C)CC1 in this test. yes (1)

Quick one: Cc1ccc2c(c1)C1CN(C)CCC1N2C(=S)NC(=O)c1ccc(Br)cc1 (centres undefined) yes (1)

Quick one: O=[N+]([O-])c1ccc(Sc2cccc[n+]2[O-])c2nonc12 yes (1)

Quick one: O=C(C#Cc1ccccc1)c1ccco1 yes (1)

Quick one: CC1(C)CC(=O)C(C=Nc2ccc(C(=O)c3ccccc3)cc2N=CC2=C(O)CC(C)(C)CC2=O)=C(O)C1 yes (1)

Quick one: N#Cc1c(C#N)c(SSc2c(C#N)c(C#N)c(N)n2-c2ccccc2)n(-c2ccccc2)c1N no (0)

Quick one: CCOC(=O)CSc1cccc2cccnc12 yes (1)

Quick one: CC(=O)OCCNc1cc(SCc2ccco2)c2nonc2c1[N+](=O)[O-] yes (1)

Quick one: COc1ccc(-c2csc(Cc3nc(O)cs3)n2)cc1 yes (1)

Quick one: CC(=O)OCCCNc1cc(Sc2ccc(Cl)cc2)c2nonc2c1[N+](=O)[O-] yes (1)

Quick one: C=C(CN(C)C)C(=O)c1ccc(OC2OC(COC(C)=O)C(OC(C)=O)C(OC(C)=O)C2OC(C)=O)cc1 (centres undefined) yes (1)

Quick one: CC(Oc1ccc(Br)cc1)C(=O)Nc1nc(-c2ccccn2)cs1 (centres undefined) yes (1)

Quick one: CCCCCCN1C=C/C(=C\C=C(C#N)C#N)c2ccccc21 yes (1)

Quick one: CCOc1ccccc1NC(=O)c1nc(S(=O)(=O)Cc2ccccc2)ncc1Cl yes (1)

Quick one: O=C(CSc1cccc2cccnc12)N/N=C/c1cccnc1 yes (1)

Quick one: COc1ccc(C(=O)/C(=C\c2ccco2)N2C=CC=CC2=C(C#N)C#N)cc1 yes (1)
